Assay: Mean residence time in mouse at 5 mg/kg, po
Format: ADME, organism-based
Set-up: dose 5 mg/kg, route oral
Details: in vivo
Metric: MRT (h)

INSERT INTO results (smiles_entry, metric, reported_result) VALUES
  ('Cc1c(C#N)c(-c2ccc(C#N)cc2)c(C)n1Cc1cnc(Cl)c(CO)c1', 'MRT', 4.85);

====

Target: UniProt:P10275
Sequence (P10275 whole entry): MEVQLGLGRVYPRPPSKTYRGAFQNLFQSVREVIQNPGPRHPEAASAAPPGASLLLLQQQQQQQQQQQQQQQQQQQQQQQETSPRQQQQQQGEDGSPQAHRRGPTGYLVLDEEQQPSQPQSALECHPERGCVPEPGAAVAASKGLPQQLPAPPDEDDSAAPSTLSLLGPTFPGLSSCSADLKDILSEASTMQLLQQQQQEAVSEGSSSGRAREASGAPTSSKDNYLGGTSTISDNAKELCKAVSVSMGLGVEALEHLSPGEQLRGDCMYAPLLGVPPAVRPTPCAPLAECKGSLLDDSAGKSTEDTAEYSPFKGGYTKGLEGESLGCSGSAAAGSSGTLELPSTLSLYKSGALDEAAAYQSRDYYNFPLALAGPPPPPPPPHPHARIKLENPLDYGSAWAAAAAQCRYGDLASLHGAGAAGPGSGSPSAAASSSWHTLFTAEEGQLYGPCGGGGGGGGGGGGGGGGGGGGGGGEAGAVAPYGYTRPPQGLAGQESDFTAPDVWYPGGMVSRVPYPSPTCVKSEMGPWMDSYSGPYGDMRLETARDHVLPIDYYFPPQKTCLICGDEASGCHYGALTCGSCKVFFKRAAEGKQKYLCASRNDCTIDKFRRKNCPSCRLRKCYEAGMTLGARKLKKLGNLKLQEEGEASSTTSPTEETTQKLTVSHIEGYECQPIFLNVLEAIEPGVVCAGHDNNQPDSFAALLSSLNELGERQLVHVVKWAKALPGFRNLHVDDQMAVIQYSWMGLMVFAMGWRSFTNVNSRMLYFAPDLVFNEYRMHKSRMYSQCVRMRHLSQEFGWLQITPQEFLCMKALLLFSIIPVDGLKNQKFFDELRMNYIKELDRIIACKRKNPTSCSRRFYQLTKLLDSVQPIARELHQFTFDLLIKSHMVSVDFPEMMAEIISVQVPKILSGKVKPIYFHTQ
Test: Antagonist activity at human androgen receptor expressed in COS7 cells assessed as inhibition of DHT-induced luciferase activity after 24 hrs by reporter gene assay
Type: functional, cell-based, COS-7
pIC50: −log10 of the molar value.
Metric: pIC50

INSERT INTO assay_data (smiles_entry, tgt, metric, reported_result) VALUES
  ('COC(=O)c1c(-c2ccc([N+](=O)[O-])cc2)c(C)n(Cc2ccccc2)c1C', 'UniProt:P10275', 'pIC50', 6.52),
  ('CCOC(=O)c1c(-c2ccc([N+](=O)[O-])cc2)c(C)n(CC2CCCCC2)c1C', 'UniProt:P10275', 'pIC50', 5.42),
  ('Cc1c(C#N)c(-c2ccc(C#N)cc2)c(C)n1Cc1ccc(Cl)nc1', 'UniProt:P10275', 'pIC50', 7.35),
  ('CCOC(=O)c1c(-c2ccc([N+](=O)[O-])cc2)c(C)n(CCc2ccccc2)c1C', 'UniProt:P10275', 'pIC50', 5.39),
  ('CCOC(=O)c1c(C)[nH]c(C)c1-c1ccc([N+](=O)[O-])cc1', 'UniProt:P10275', 'pIC50', 6.62),
  ('CCOC(=O)c1c(-c2ccc([N+](=O)[O-])cc2)c(C)n(S(=O)(=O)c2ccccc2)c1C', 'UniProt:P10275', 'pIC50', 5.33),
  ('CCOC(=O)c1c(-c2ccc([N+](=O)[O-])cc2)c(C)n(C)c1C', 'UniProt:P10275', 'pIC50', 6.30),
  ('Cc1c(C#N)c(-c2ccc(C#N)cc2)cn1Cc1cnc(Cl)c(CO)c1', 'UniProt:P10275', 'pIC50', 6.77),
  ('Cc1c(C#N)c(-c2ccc(C#N)cc2)c(C)n1Cc1cccnc1', 'UniProt:P10275', 'pIC50', 7.19),
  ('Cc1c(C(=O)O)c(-c2ccc([N+](=O)[O-])cc2)c(C)n1Cc1ccccc1', 'UniProt:P10275', 'pIC50', 5.06),
  ('Cc1c(C#N)c(-c2ccc(C#N)cc2)c(C)n1Cc1cnc(Cl)c(CO)c1', 'UniProt:P10275', 'pIC50', 7.60),
  ('CCOC(=O)c1c(-c2ccc([N+](=O)[O-])cc2)c(C)n(-c2ccccc2)c1C', 'UniProt:P10275', 'pIC50', 5.37),
  ('Cc1c(-c2ccc(C#N)cc2)c(C#N)cn1Cc1cnc(Cl)c(CO)c1', 'UniProt:P10275', 'pIC50', 6.49),
  ('CCOC(=O)c1c(-c2ccc([N+](=O)[O-])cc2)c(C)n(Cc2ccccc2)c1C', 'UniProt:P10275', 'pIC50', 6.47);
